EC50: recorded values
biological target: EBOV GP [change] (Zaire ebolavirus (EBOV), strain Makona); assay: ELISA, coated recombinant GP ΔTM

Here's what some known entries look like.
EBOV-514 (antibody, V domains shown) VH: QVQLQESGPGLVKPSQTLSLTCTVSGASITGGDDFWSWIRQPPGKGLEWIGFIHHSGNAYYRSSLKSRVHFSVDTSKDQFSLTLTSVTAADTAVYYCARDKAQAYGLLYHYHTDVWGKGTLVTVSS VL: EIVMTQSPATLSVSPGERATLSCRASQSVSSNLAWYQQKPGLAPRLLIYGAFTRATDIPDRFSGSGSGTEFTLTISSLQSEDFAIYYCQYYNDWPPGYTFGQGTKLEIK ... 0.007 mg/L
EBOV-517 (antibody, V domains shown) VH: EVQLVESGGGLVQPGGSLRLSCGASGFTFNKYWMTWVRQAPGKGLEWVANINQDGSEKYFAESVKGRFTVSRDNAKNSLYLQMNSLRAEDTAVYYCARGASIEVEILYYYHMDVWGKGTLVTVSS VL: EIVMTQSPATLSVSPGERATLSCRASQSITTHLAWYQQKPGQAPRLLIYDTSTRATGIPARFSGSGSGTEFTLTISNMQSEDFAVYYCQQYHTWPPLTFGGGTKVEIK ... 0.042 mg/L
EBOV-510 (antibody, V domains shown) VH: QVQLQESGPGLVKPSQTLSLTCTVSGGSITSGDYYLTWVRQPPGKGLEWIGHIYYSGSTSYNPSLKSRLLMSVDTSKNQFSLRLSSVTAADTAVYYCARESDGDPSRLYFYFAMDVWGQGTLVTVSS VL: QSALTQPASVSGSPGQSITISCTGTSSDVGGSYFVSWYQHHPGKAPKLMISEVSNRPSGVSNRFSGSKSGNTASLTISGLRTEDEADYYCSSYTSNTTLVFGGETKVTVL ... 0.143 mg/L
EBOV-507 (antibody, V domains shown) VH: QVQLVQSGAEVKKPGASVKVSCKASGYTFNNYLINWVRQAPGQGLEWMGWINPHSGGTEYAQQFQGRLTVTRDTSIRTAYMELRGLTFDDSAMYYCWIWFRSETFDFWGQGTLVTVSS VL: DIQMTQSPSAMSASVGDRVTITCRASQDISNYLAWFQQKPGQGPKRLIFEASILHSGVPSRFSGSGSGTEFTLTISSLQPEDFATYYCLQHNTYLTFGQGTKVEIK ... 0.001 mg/L
EBOV-518 (antibody, V domains shown) VH: QVTLKESGPTLVKPTQTLTLTCTFSGFSMNSSGMSVTWIRQPPGKALECLALIYWDDDKWYGPSLETRVTITKDASKNQVVLTMTNMDPVDTATYYCAHSGGLVAGAFDYWGQGTLVTVSS VL: EIVMTQSPDSLTVSLGERATINCRSSQSVLYRVNSKNYLAWYQQKAGQTPKLIINWASTRESGVPDRFSGSGSGTDFTLTISSLQAEDVAVYYCQQYYNSPRTFGQGTKVEIK ... 0.283 mg/L

Moving on to the next binder.
response.value for EBOV-508 (antibody, V domains shown) VH: QVQLVQSGAEVKKPGASVKVSCKASGYTFINYYMHWVRQAPGQGLEWMGTINPSTGRPNYAQKFQGRVTLTRDTSTTTVDMELSSLTSEDTAVYYCVSFQFYFDYWGQGTLVTVSS VL: DIQMTQSPSAMSPSVGDRVTITCRASQGINNYLAWFQQKPGKVPKRLIYAASNLQSGVPSRFSGSGSGTEFTLTISSLQPEDFATYYCLQHNSYPWTFGQGTKVEIN (field: EC50) = 0.002 mg/L
